These data points were gathered from patent US7713994B2.

target: cyclin E/CDK2 enzyme (Homo sapiens); construct: made in house; host or cells: Sf9 insect cells, recombinant baculovirus; assay: CDK2 ELISA kinase assay (phospho-Rb ser 795 detection); format: biochemical; conditions: In Vitro Enzyme Assays, read-out: CDK2 IC50
pIC50: −log10 of the molar value.
RESULT TYPE: pIC50

[[record]]
compound = "CCCOc1ccc(CN/C=C2\\C(=O)NC(=O)c3ccc(Br)cc32)cc1O [Example 130]"
meas_value = 4.46


a = NS(=O)(=O)c1ccc(CN/C=C2\C(=O)NC(=O)c3ccc(Br)cc32)cc1 [Example 56]
b = COc1ccc(CN/C=C2\C(=O)NC(=O)c3ccc(NS(=O)(=O)c4ccccc4)cc32)cc1O [Example 196]
Data request: # return whichever of a and b has the smaller pIC50 // output: label of the selected item
Data returned: b

---

// values below are reported IC50
tested on: LoVo; assay: Cytotoxicity assay (SRB), LoVo; type: cell-based; details: Homo sapiens, LoVo, 72 h, LoVo cells, SRB, three days; read-out: In Vitro Cellular Activity IC50 LOVO
# number only, unit µM dropped from output

[[record]]
compound = "O=Cc1sccc1-c1ccc2c(c1)/C(=C/Nc1ccc(CN3CCCCC3)cc1)C(=O)NC2=O"
result_type = "IC50"
meas_value = 1.9


Data request: Please indicate IC50 recorded for O=C1NC(=O)c2ccc(I)cc2/C1=C/Nc1ccc(CN2CCCC2)cc1
Data returned: 5.1

Data request: Please indicate IC50 recorded for O=C1NC(=O)c2ccc(Nc3ccccc3)cc2/C1=C/Nc1ccc(CN2CCCCC2)cc1
Data returned: 2.1

Data request: Please indicate IC50 recorded for COc1ccc(CN/C=C2\C(=O)NC(=O)c3ccc(F)cc32)cc1O
Data returned: 19

Data request: Please indicate IC50 recorded for C=CC(=O)Nc1ccc(CN/C=C2\C(=O)NC(=O)c3ccc(I)cc32)cc1O
Data returned: 0.09

Data request: Please indicate IC50 recorded for O=C1NC(=O)c2ccc(Br)cc2/C1=C/Nc1cc(F)c(N2CCN3CCC[C@H]3C2)c(F)c1
Data returned: 6.4

Data request: Please indicate IC50 recorded for CCCOc1ccc(CN/C=C2\C(=O)NC(=O)c3ccc(Br)cc32)cc1OC(=O)CC
Data returned: 13

Data request: Please indicate IC50 recorded for COCC1CCCN1Cc1ccc(N/C=C2\C(=O)NC(=O)c3ccc(Br)cc32)cc1 (stereo in doubt)
Data returned: 9.4

Data request: Please indicate IC50 recorded for CN1CC2CC1CN2c1ccc(NC=C2C(=O)NC(=O)c3ccc(I)cc32)cc1 (centres unmarked)
Data returned: 3.2

Data request: Please indicate IC50 recorded for COc1cc2c(cc1-c1ccoc1)/C(=C/Nc1ccc(N3CCN(C)CC3)cc1)C(=O)NC2=O
Data returned: 4.8

Data request: Please indicate IC50 recorded for CC(C)C(=O)Nc1ccc(CN/C=C2\C(=O)NC(=O)c3ccc(I)cc32)cc1O
Data returned: 4.5

Data request: Please indicate IC50 recorded for CC(=O)Oc1cc(CN/C=C2\C(=O)NC(=O)c3ccc(Br)cc32)cc2c1OC(C)(C)O2
Data returned: 47

Data request: Please indicate IC50 recorded for O=C1NC(=O)c2ccc(-n3cccc3)cc2/C1=C/Nc1ccc(CN2CCCC2)cc1
Data returned: 3.4

Data request: Please indicate IC50 recorded for CC(C)Oc1ccc(CN/C=C2\C(=O)NC(=O)c3ccc(Br)cc32)cc1O
Data returned: 5.8

Data request: Please indicate IC50 recorded for CCCCN(C)CCN(C)c1ccc(NC=C2C(=O)NC(=O)c3ccc(Br)cc32)cc1 (stereo in doubt)
Data returned: 4.7
